Provide the reported activity coefficient of each item.
- measurementDescription: activity coefficient (dimensionless); of the first substance listed, at infinite dilution; xn = mol fraction of the nth substance listed
- reportedConditions: 332.65 K; Liquid; Chromatography; x1 = 0
Reply: number alone, nothing else.

Using known records, supply activity coefficient for CC(C)CC(C)(C)C [2,2,4-trimethylpentane] + CCCCCCCC[N+](CCCCCCCC)(CCCCCCCC)CCCCCCCC.O=S(=O)([N-]S(=O)(=O)C(F)(F)F)C(F)(F)F
1.51

Using known records, supply activity coefficient for ClC(Cl)Cl [trichloromethane] + CCCCCCCCCC[N+](C)(C)C.O=S(=O)([N-]S(=O)(=O)C(F)(F)F)C(F)(F)F
0.68

Using known records, supply activity coefficient for C1COCCO1 [1,4-dioxane] + CCCCCCCC[N+](C)(C)C.O=S(=O)([N-]S(=O)(=O)C(F)(F)F)C(F)(F)F
0.62

Using known records, supply activity coefficient for CCCCCCCC [octane] + CCCCCCCCCC[N+](C)(C)C.O=S(=O)([N-]S(=O)(=O)C(F)(F)F)C(F)(F)F
6.41

Using known records, supply activity coefficient for CCOCC [diethyl ether] + CCCCCCCC[N+](CCCCCCCC)(CCCCCCCC)CCCCCCCC.O=S(=O)([N-]S(=O)(=O)C(F)(F)F)C(F)(F)F
0.71

Using known records, supply activity coefficient for CCCO [propan-1-ol] + CCCCCCCC[N+](CCCCCCCC)(CCCCCCCC)CCCCCCCC.O=S(=O)([N-]S(=O)(=O)C(F)(F)F)C(F)(F)F
1.14

Using known records, supply activity coefficient for Cc1cccc(C)c1 [1,3-dimethylbenzene] + CCCCCCCCCC[N+](C)(C)C.O=S(=O)([N-]S(=O)(=O)C(F)(F)F)C(F)(F)F
1.14

Using known records, supply activity coefficient for C=O [methanal] + CCCCCCCC[N+](C)(C)C.O=S(=O)([N-]S(=O)(=O)C(F)(F)F)C(F)(F)F
0.11

Using known records, supply activity coefficient for CCCCCCCCC [nonane] + CCCCCCCCCC[N+](C)(C)C.O=S(=O)([N-]S(=O)(=O)C(F)(F)F)C(F)(F)F
8.63

Using known records, supply activity coefficient for Cc1ccc(C)cc1 [1,4-dimethylbenzene] + CCCCCCCC[N+](CCCCCCCC)(CCCCCCCC)CCCCCCCC.O=S(=O)([N-]S(=O)(=O)C(F)(F)F)C(F)(F)F
0.6

Using known records, supply activity coefficient for c1ccncc1 [pyridine] + CCCCCCCC[N+](C)(C)C.O=S(=O)([N-]S(=O)(=O)C(F)(F)F)C(F)(F)F
0.44

Using known records, supply activity coefficient for ClC(Cl)Cl [trichloromethane] + CCCCCCCC[N+](CCCCCCCC)(CCCCCCCC)CCCCCCCC.O=S(=O)([N-]S(=O)(=O)C(F)(F)F)C(F)(F)F
0.35

Using known records, supply activity coefficient for CCCCCCC [heptane] + CCCC[N+](C)(CCCC)CCCC.O=S(=O)([N-]S(=O)(=O)C(F)(F)F)C(F)(F)F
8.82

Using known records, supply activity coefficient for c1ccsc1 [thiophene] + CCCCCCCC[N+](C)(C)C.O=S(=O)([N-]S(=O)(=O)C(F)(F)F)C(F)(F)F
0.69

Using known records, supply activity coefficient for c1ccccc1 [benzene] + CCCCCCCC[N+](CCCCCCCC)(CCCCCCCC)CCCCCCCC.O=S(=O)([N-]S(=O)(=O)C(F)(F)F)C(F)(F)F
0.41

Using known records, supply activity coefficient for c1ccccc1 [benzene] + CCCCCCCC[N+](C)(C)C.O=S(=O)([N-]S(=O)(=O)C(F)(F)F)C(F)(F)F
0.74

Using known records, supply activity coefficient for CCCCO [butan-1-ol] + CCCCCCCC[N+](C)(C)C.O=S(=O)([N-]S(=O)(=O)C(F)(F)F)C(F)(F)F
1.8

Using known records, supply activity coefficient for C1CCCCCC1 [cycloheptane] + CCCC[N+](C)(CCCC)CCCC.O=S(=O)([N-]S(=O)(=O)C(F)(F)F)C(F)(F)F
17.7

Using known records, supply activity coefficient for CC(C)O [propan-2-ol] + CCCCCCCCCC[N+](C)(C)C.O=S(=O)([N-]S(=O)(=O)C(F)(F)F)C(F)(F)F
1.28

Using known records, supply activity coefficient for ClCCl [dichloromethane] + CCCCCCCC[N+](C)(C)C.O=S(=O)([N-]S(=O)(=O)C(F)(F)F)C(F)(F)F
0.53

Using known records, supply activity coefficient for CCCCCCCC [octane] + CCCCCCCC[N+](CCCCCCCC)(CCCCCCCC)CCCCCCCC.O=S(=O)([N-]S(=O)(=O)C(F)(F)F)C(F)(F)F
1.71

Using known records, supply activity coefficient for CCCO [propan-1-ol] + CCCCCCCC[N+](C)(C)C.O=S(=O)([N-]S(=O)(=O)C(F)(F)F)C(F)(F)F
1.55

Using known records, supply activity coefficient for CC1CCCCC1 [methylcyclohexane] + CCCC[N+](C)(CCCC)CCCC.O=S(=O)([N-]S(=O)(=O)C(F)(F)F)C(F)(F)F
5.91

Using known records, supply activity coefficient for CO [methanol] + CCCCCCCC[N+](C)(C)C.O=S(=O)([N-]S(=O)(=O)C(F)(F)F)C(F)(F)F
0.78

Using known records, supply activity coefficient for C1CCCCC1 [cyclohexane] + CCCCCCCC[N+](C)(C)C.O=S(=O)([N-]S(=O)(=O)C(F)(F)F)C(F)(F)F
3.84

Using known records, supply activity coefficient for OCC(F)(F)F [2,2,2-trifluoroethanol] + CCCCCCCC[N+](CCCCCCCC)(CCCCCCCC)CCCCCCCC.O=S(=O)([N-]S(=O)(=O)C(F)(F)F)C(F)(F)F
0.37

* * *

- measurementDescription: activity coefficient (dimensionless); of the first substance listed, at infinite dilution; xn = mol fraction of the nth substance listed
- reportedConditions: 322.85 K; Liquid; Chromatography; x1 = 0
readoutLabel: activity coefficient
Reply: number alone, nothing else.

Using known records, supply activity coefficient for CCCO [propan-1-ol] + CCCC[N+](C)(CCCC)CCCC.O=S(=O)([N-]S(=O)(=O)C(F)(F)F)C(F)(F)F
1.78

Using known records, supply activity coefficient for CCc1ccccc1 [ethylbenzene] + CCCC[N+](C)(CCCC)CCCC.O=S(=O)([N-]S(=O)(=O)C(F)(F)F)C(F)(F)F
1.56

Using known records, supply activity coefficient for CCCCCCC [heptane] + CCCCCCCC[N+](CCCCCCCC)(CCCCCCCC)CCCCCCCC.O=S(=O)([N-]S(=O)(=O)C(F)(F)F)C(F)(F)F
1.5

Using known records, supply activity coefficient for CCC=O [propanal] + CCCCCCCCCC[N+](C)(C)C.O=S(=O)([N-]S(=O)(=O)C(F)(F)F)C(F)(F)F
0.4

* * *

- measurementDescription: activity coefficient (dimensionless); of the first substance listed, at infinite dilution; xn = mol fraction of the nth substance listed
- reportedConditions: 322.85 K; Liquid; Chromatography; x1 = 0
readoutLabel: activity coefficient
Reply: number alone, nothing else.

Using known records, supply activity coefficient for CCC(=O)CC [pentan-3-one] + CCCCCCCC[N+](CCCCCCCC)(CCCCCCCC)CCCCCCCC.O=S(=O)([N-]S(=O)(=O)C(F)(F)F)C(F)(F)F
0.32

Using known records, supply activity coefficient for CC1CCCC1 [methylcyclopentane] + CCCCCCCC[N+](CCCCCCCC)(CCCCCCCC)CCCCCCCC.O=S(=O)([N-]S(=O)(=O)C(F)(F)F)C(F)(F)F
0.98

Using known records, supply activity coefficient for CCC(C)CC [3-methylpentane] + CCCCCCCC[N+](C)(C)C.O=S(=O)([N-]S(=O)(=O)C(F)(F)F)C(F)(F)F
5.62

Using known records, supply activity coefficient for CCCCCC [hexane] + CCCC[N+](C)(CCCC)CCCC.O=S(=O)([N-]S(=O)(=O)C(F)(F)F)C(F)(F)F
6.75

Using known records, supply activity coefficient for CCC(=O)CC [pentan-3-one] + CCCCCCCCCC[N+](C)(C)C.O=S(=O)([N-]S(=O)(=O)C(F)(F)F)C(F)(F)F
0.41

Using known records, supply activity coefficient for ClC(Cl)Cl [trichloromethane] + CCCCCCCCCC[N+](C)(C)C.O=S(=O)([N-]S(=O)(=O)C(F)(F)F)C(F)(F)F
0.65

* * *

- measurementDescription: activity coefficient (dimensionless); of the first substance listed, at infinite dilution; xn = mol fraction of the nth substance listed
- reportedConditions: 332.65 K; Liquid; Chromatography; x1 = 0
readoutLabel: activity coefficient
Reply: number alone, nothing else.

Using known records, supply activity coefficient for CCOCC [diethyl ether] + CCCCCCCCCC[N+](C)(C)C.O=S(=O)([N-]S(=O)(=O)C(F)(F)F)C(F)(F)F
1.24

Using known records, supply activity coefficient for CCCCCCCCCCC [undecane] + CCCC[N+](C)(CCCC)CCCC.O=S(=O)([N-]S(=O)(=O)C(F)(F)F)C(F)(F)F
24.8

Using known records, supply activity coefficient for Cc1ccc(C)cc1 [1,4-dimethylbenzene] + CCCCCCCC[N+](C)(C)C.O=S(=O)([N-]S(=O)(=O)C(F)(F)F)C(F)(F)F
1.39

Using known records, supply activity coefficient for C[N+](=O)[O-] [nitromethane] + CCCC[N+](C)(CCCC)CCCC.O=S(=O)([N-]S(=O)(=O)C(F)(F)F)C(F)(F)F
0.65

Using known records, supply activity coefficient for C#CCCCCC [1-heptyne] + CCCC[N+](C)(CCCC)CCCC.O=S(=O)([N-]S(=O)(=O)C(F)(F)F)C(F)(F)F
2.89

Using known records, supply activity coefficient for CCCCO [butan-1-ol] + CCCCCCCC[N+](CCCCCCCC)(CCCCCCCC)CCCCCCCC.O=S(=O)([N-]S(=O)(=O)C(F)(F)F)C(F)(F)F
1.12

Using known records, supply activity coefficient for ClC(Cl)(Cl)Cl [tetrachloromethane] + CCCCCCCCCC[N+](C)(C)C.O=S(=O)([N-]S(=O)(=O)C(F)(F)F)C(F)(F)F
1.5
